Test system: biotinyl-Val-oxazolone
Experiment: self-aminoacylation, catalytic enhancement (BVO) (fold over background); higher = more active; k-Seq, kA / k0A0; sequences stand for … in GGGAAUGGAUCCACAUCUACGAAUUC…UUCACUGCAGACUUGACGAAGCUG
This sample holds only a part of the variants without activity.
So basically: self-aminoacylation at 2 or higher? That is 1.0. Lower than 2? That is 0.0.

[[record]]
sequence_entry = "AAGUUCGCUAAUAGUCGCAAG [Fam3.1 aminoacylation ribozyme variant]"
qualitative_label = 0.0


Query: Identify whether the reported self-aminoacylation of the following sequence is 2 or greater: CUACUUCAAAAUAUCGGUCUG [Fam1A.1 aminoacylation ribozyme variant]
Reply: 0.0

Query: Identify whether the reported self-aminoacylation of the following sequence is 2 or greater: CUACUUCGAACAUUCGGUCUG [Fam1A.1 aminoacylation ribozyme variant]
Reply: 0.0

Query: Identify whether the reported self-aminoacylation of the following sequence is 2 or greater: CUACUUCGAAGAAUCGGUCUG [Fam1A.1 aminoacylation ribozyme variant]
Reply: 0.0

Query: Identify whether the reported self-aminoacylation of the following sequence is 2 or greater: AUUCACUUAGGUCAUUGGGUG [Fam2.2 aminoacylation ribozyme variant]
Reply: 1.0

Query: Identify whether the reported self-aminoacylation of the following sequence is 2 or greater: CCACACUUCAAGCAUUCGGAC [Fam1B.1 aminoacylation ribozyme variant]
Reply: 0.0

Query: Identify whether the reported self-aminoacylation of the following sequence is 2 or greater: AAGUUUGCUAAUAGCCGCGAG [Fam3.1 aminoacylation ribozyme variant]
Reply: 0.0

Query: Identify whether the reported self-aminoacylation of the following sequence is 2 or greater: AUUACCCCGGUCAUCUAGUGA [Fam2.1 aminoacylation ribozyme variant]
Reply: 1.0

Query: Identify whether the reported self-aminoacylation of the following sequence is 2 or greater: CCCCACUUCAAGCAAUCGGUG [Fam1B.1 aminoacylation ribozyme variant]
Reply: 1.0

Query: Identify whether the reported self-aminoacylation of the following sequence is 2 or greater: CUACUUUAAACAAUAGGUCUG [Fam1A.1 aminoacylation ribozyme variant]
Reply: 0.0

Query: Identify whether the reported self-aminoacylation of the following sequence is 2 or greater: AUUCCCCUGGUCAUCUAGUGA [Fam2.1 aminoacylation ribozyme variant]
Reply: 1.0

Query: Identify whether the reported self-aminoacylation of the following sequence is 2 or greater: AAGUUUGCUAUGAGUCGCAAG [Fam3.1 aminoacylation ribozyme variant]
Reply: 0.0

* * *

System: biotinyl-Phe-oxazolone
Test: self-aminoacylation, catalytic enhancement (BFO) (fold over background); higher = more active; k-Seq, kA / k0A0; sequences stand for … in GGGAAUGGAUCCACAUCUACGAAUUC…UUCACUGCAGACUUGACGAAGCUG
Fewer inactive variants are shown than the library holds.
Listed here are sequences together with their documented self-aminoacylation.
Number only, no unit.

Here is how some sequences turned out for self-aminoacylation.
[[record]]
sequence_entry = "AUUCCCCUGGUCAUCUAGUGA [Fam2.1 aminoacylation ribozyme variant]"
observed_result = 85.5

[[record]]
sequence_entry = "AUUAACAUAGGUCAUCGGGUG [Fam2.2 aminoacylation ribozyme variant]"
observed_result = 38

[[record]]
sequence_entry = "AUUACACUCGUCAUCGAGUGA [Fam2.1 aminoacylation ribozyme variant]"
observed_result = 18

[[record]]
sequence_entry = "AAGUUUUCUAGUAGUCGCAAG [Fam3.1 aminoacylation ribozyme variant]"
observed_result = 2.53

[[record]]
sequence_entry = "AUUCACAUAGGUCAUAGGGUG [Fam2.2 aminoacylation ribozyme variant]"
observed_result = 2.85

[[record]]
sequence_entry = "UUUCACCUAAGUCAUCGGGUG [Fam2.2 aminoacylation ribozyme variant]"
observed_result = 51.6


The reported biotinyl-Phe-oxazolone self-aminoacylation of AUUACCCUGGUCAUCUAAUGA [Fam2.1 aminoacylation ribozyme variant] is 0.963

The reported biotinyl-Phe-oxazolone self-aminoacylation of CUACUUCAGAGAAUCGGUCUG [Fam1A.1 aminoacylation ribozyme variant] is 0.895

The reported biotinyl-Phe-oxazolone self-aminoacylation of CCACUUCAAACAUUCGGUCUG [Fam1A.1 aminoacylation ribozyme variant] is 5.58
